The origin of these recorded values is patent US20250027068.

- assayedSystem: pooled human IgG (human IgG1, 2, 3 and 4)
readoutType: Enzyme Activity Endpoint Assay (purified): Fab′2 (ng/µL)

[
  {
    "protein": "PRT-432 (protein) MSQTEDSESLQRLRDIEDFQAEKKKQNVVYTKWLDGVDVKDHDFRKIVDGNIAYYATPLLNGRGFYDINKDFNRDSDKCAAAVAANMFHYWLDRNRDNVDRFLRQNPEKHGIIELPDGQLKLSDFLNTYESDDGYRDKSKLFDFISNNFNGPVWTDKLLDNYINGYAYNSKYGRTIEDPTKNTSKINFFKEVFNEKILTNNHSIRNQNEFSVLLSEALYTGKAIGLSYGPAGLRHSLGHIISVWGADLDADGNVVAIYVTDSDDKKLTIGDERVGLKRYKISTDDEGRLRLTAYEETHNTGGQIRGLWTLDTGKQAWADYFDKTEQTGTDQAEQ",
    "readoutUnit": "ng/µL",
    "readoutValue": 462
  },
  {
    "protein": "PRT-405 (protein) MVTSVWTKGVTPPADFTQGEDVFHAPYVANQGWYDITKTFNGKDDLLCGAATAGNMLHWWFDQNKEYIEAYLKKHPEKQKIMFGDQELLDVRKAINTKGSQKNSELFNYFRDKAFPNLSARRLGVMPDLVLDMFINGYYLNVTKTQTTDVNRTYQEKDKRGGIFDAVFTRGDQSKLLTSRHDFKEKGLKEISDLIKQELTEGKALGLSHTYANVRINHVINLWGADFDSDGNLKAIYVTDSDSNASIGMKKYGVGVNSAGKVAISAKEIKEDNIGAQVLGLFTLSTGQDIWNQTN",
    "readoutUnit": "ng/µL",
    "readoutValue": 86
  },
  {
    "protein": "PRT-390 (protein) MVTSVWTKGVTPPTNFTYGEDVLHAPYVANQGWYDITKTFNGKDDLLCGAATAGNMLHWWFDQNKEQIENYLKKHPEKQKINFNGEQLFDVKEAIDTKDSQLDSKLFEYFKEKAFPYLSTKHLGVFPDHVIDMFINGYRLSLTNHGPTPVKRGSKDPRGGIFDAVFTRGDQSKLLTNRHDFKEKTLKEISDLIKQELTEGKALGISHTYANVRINHVINLWGADFDAEGNLEAIYVTDSDSNASIGMKKYFVGVNSNGKVAISAKEIEEDNIGAQVLGLFTLSTGQDIWNQTN",
    "readoutUnit": "ng/µL",
    "readoutValue": 578
  },
  {
    "protein": "PRT-420 (protein) MTITSVWTKGVTPPTPEDFRYNNEDVLHAPYVANQGWYDITKTFDGKDNLLCGAATAGNMLHWWFDQNKEEIERYLKKHPEKQKIIFNNQEWFDVKAAIDTKDSQTNSKLFNYFRDKAFPNLSARQLGVMPDLVLDMFINGYYLNLGKTQSTDVNRPYQDKDKRGGIFDAVFTRGDQTTLLTARHDLKNKGLNEISDLIKQELTEGKALALSHTYANVRINHVINLWGADFDAEGNLIAIYVTDSDANASIGMKKYFVGVNANGKVAISAKKIEGDNIGAQVLGLFTLSTGQDIWQKLS",
    "readoutUnit": "ng/µL",
    "readoutValue": 515
  }
]
